# subject-of-test: T1, hSTEAP3 fused to GFP (Homo sapiens, UniProt Q658P3)
# T1 construct: expressed in transfected cells; host or cells: HEK293
# T1 sequence (Q658P3 1-488): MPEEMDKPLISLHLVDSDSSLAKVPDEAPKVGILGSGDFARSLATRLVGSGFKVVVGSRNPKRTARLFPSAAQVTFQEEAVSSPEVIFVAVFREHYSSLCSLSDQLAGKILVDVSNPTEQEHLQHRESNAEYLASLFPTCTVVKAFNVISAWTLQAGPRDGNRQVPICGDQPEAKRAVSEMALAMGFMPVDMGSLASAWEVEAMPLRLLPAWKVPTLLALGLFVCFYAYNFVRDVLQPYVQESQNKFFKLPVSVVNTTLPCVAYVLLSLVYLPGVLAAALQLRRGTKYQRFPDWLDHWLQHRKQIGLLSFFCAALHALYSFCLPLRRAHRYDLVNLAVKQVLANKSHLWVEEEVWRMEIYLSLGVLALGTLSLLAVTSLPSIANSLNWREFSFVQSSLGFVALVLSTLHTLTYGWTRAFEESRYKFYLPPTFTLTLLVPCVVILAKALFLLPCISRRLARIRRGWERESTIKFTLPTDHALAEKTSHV
# test-protocol: Specificity: binding to HEK293 cells transfected with hSTEAP3-GFP
# Parameters: key: Wells with GFP positive cells that bound anti STEAP2 antibodies were scored as positive (+); those that did not bind anti STEAP2 antibodies were scored as negative (−)
# run-parameters: transient transfection, 48 h
recorded-metric: Binding to hSTEAP3-GFP transfected HEK293 cells

| molecule | observed |
| --- | --- |
| H2M7811N: anti-STEAP2 antibody, HCVR/LCVR SEQ ID NOs 362/370 (antibody, V domains shown) VH: QVQLVESGGGVVQPGRSLRLSCAVSGFTSSTYGMNWVRQAPGKGLEWVAVISFDGSNKYYADSVKGRFTISRDNSKNTLYLQMSSLRPEDTAVYYCARGRYFDLWGRGTLVTVSS VL: DTQMTQSPSTLSASVGDRVTITCRASQIISSWLAWYQQKPGKAPKLLIYKASSLASGVPSRFSGSGSGTEFTLTISSLQPDDFATYYCQQYKSYSYTFGQGTNLEIK | − |
| H2M7807N: anti-STEAP2 antibody, HCVR/LCVR SEQ ID NOs 314/322 (antibody, V domains shown) VH: QVQLVESGGGVVQPGRSLRLSCAVSGFTSSTYGMNWVRQAPGKGLEWVAVISYDGSNKYYADSVKGRFTISRDNSKNTLYLQMNSLRPEDTAVYYCARGRYFDLWGRGTLVTVSS VL: DIQMTQSPSTLSASVGDRVTITCRASQIISSWLAWYQQKPGKAPKLLIYKASSLASGVPSRFSGSGSGTEFTLTISSLQPDDFATYYCQQYKSYSYTFGQGTNLEIK | − |
| H1M7814N: anti-STEAP2 antibody, mouse IgG1 Fc, HCVR/LCVR SEQ ID NOs 218/226 (antibody, V domains shown, mouse IgG1 Fc) VH: QVQLVESGGGVVQPGRSLRLSCVASGFTISSYGMNWVRQAPGKGLEWVAVISYDGGNKYSVDSVKGRFTISRDNSKNTLYLQMNSLRAEDSAVYYCARGRYFDLWGRGTLVTVSS VL: DIQMTQSPSTLSASVGDRVTITCRASQSISSWLAWYQQKPGRAPNLLISKASSLKSGVPSRFSGSGSGTEFTLTVSSLQPDDFATYYCQQYYSYSYTFGQGTKLEIK | − |
